Source listed as PubChem BioAssay AID1963856.

# Test system: LG0567-F671-PDC KRAS tumor spheroid viability
# assayText: Anticancer human tumor LG0567-F671-PDC patient-derived lung adenocarcinoma cell line growth inhibition [KRAS2]; active = viability on the fitted dose curve at most 10% of control; inactive = the rest
# runParameters: second compound 3.16 µM; first compound 1 µM; spheroids with HUVEC and MSC
Result category, one only: TRUE = active, FALSE = inactive

Take a look at these entries with their results.
compound	discreteLabel
CC(=O)OC12COC1CC(O)C1(C)C(=O)C(O)C3=C(C)C(OC(=O)C(O)C(NC(=O)OC(C)(C)C)c4ccccc4)CC(O)(C(OC(=O)c4ccccc4)C21)C3(C)C (stereo not given) + CC1OCC2(CCN(c3cnc(Sc4ccnc(N)c4Cl)c(N)n3)CC2)C1N	FALSE
O=C(c1cc(Cc2n[nH]c(=O)c3ccccc23)ccc1F)N1CCN(C(=O)C2CC2)CC1 + CC1OCC2(CCN(c3cnc(Sc4ccnc(N)c4Cl)c(N)n3)CC2)C1N	FALSE
CC(C)NCC(C(=O)N1CCN(c2ncnc3c2C(C)CC3O)CC1)c1ccc(Cl)cc1 (stereo not given) + C=CC(=O)N1CCN(c2nc(OCC3CCCN3C)nc3c2CCN(c2cccc4cccc(C)c24)C3)CC1CC#N	TRUE
O=C(c1cc(Cc2n[nH]c(=O)c3ccccc23)ccc1F)N1CCN(C(=O)C2CC2)CC1 + COc1cc2nc(C)nc(NC(C)c3cc(N)cc(C(F)(F)F)c3)c2cc1OC1CCOC1	FALSE

Kindly provide the recorded test outcome for the following compound: CC1(C)CCC(CN2CCN(c3ccc(C(=O)NS(=O)(=O)c4ccc(NCC5CCOCC5)c([N+](=O)[O-])c4)c(Oc4cnc5[nH]ccc5c4)c3)CC2)=C(c2ccc(Cl)cc2)C1 + C=CC(=O)N1CCN(c2nc(OCC3CCCN3C)nc3c2CCN(c2cccc4cccc(C)c24)C3)CC1CC#N
TRUE

* * *

# Test system: LG0567-F671-PDC KRAS tumor spheroid viability
# assayText: Anticancer human tumor LG0567-F671-PDC cell line growth inhibition [KRAS2];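 note: drug exposure lasted seven days after spheroids formed for three days; 100% = DMSO vehicle control viability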
# runParameters: second compound 10 µM; first compound 0.1 µM; hits give low values; spheroids with HUVEC and MSC
Below, each entry is listed with its recorded viability, T/C.
Please reply with the bare figure in % and do not write the unit itself.

compound	unit	viability, T/C
Cn1ncnc1[C@H]1c2n[nH]c(=O)c3cc(F)cc(c23)N[C@@H]1c1ccc(F)cc1 + C=CC(=O)N1CCN(c2nc(=O)n(-c3c(C)ccnc3C(C)C)c3nc(-c4c(O)cccc4F)c(F)cc23)C(C)C1	%	20.1

Any idea what viability, T/C was measured for Cn1nccc1Nc1nccc(-c2cc3c(s2)C(C)(C)N(CCN2CCOCC2)C3=O)n1 + C=CC(=O)N1CCN(c2nc(=O)n(-c3c(C)ccnc3C(C)C)c3nc(-c4c(O)cccc4F)c(F)cc23)C(C)C1 ?
19.2

Any idea what viability, T/C was measured for CCN1CCN(Cc2ccc(Nc3ncc(F)c(-c4cc(F)c5nc(C)n(C(C)C)c5c4)n3)nc2)CC1 + CNCc1ccccc1-c1csc(C(C)Nc2nc(C)nc3cc(OC)c(OC)cc23)c1 ?
0.12

Any idea what viability, T/C was measured for Cn1nccc1Nc1nccc(-c2cc3c(s2)C(C)(C)N(CCN2CCOCC2)C3=O)n1 + CC1OCC2(CCN(c3cnc(Sc4ccnc(N)c4Cl)c(N)n3)CC2)C1N ?
10.7

Any idea what viability, T/C was measured for O=C(c1cc(Cc2n[nH]c(=O)c3ccccc23)ccc1F)N1CCN(C(=O)C2CC2)CC1 + C=CC(=O)N1CCN(c2nc(=O)n(-c3c(C)ccnc3C(C)C)c3nc(-c4c(O)cccc4F)c(F)cc23)C(C)C1 ?
32.1

Any idea what viability, T/C was measured for CC(C)NCC(C(=O)N1CCN(c2ncnc3c2C(C)CC3O)CC1)c1ccc(Cl)cc1 (stereo unspecified) + C=CC(=O)N1CCN(c2nc(=O)n(-c3c(C)ccnc3C(C)C)c3nc(-c4c(O)cccc4F)c(F)cc23)C(C)C1 ?
17

Any idea what viability, T/C was measured for COc1cc(Nc2ncc3c(n2)-c2ccc(Cl)cc2C(c2c(F)cccc2OC)=NC3)ccc1C(=O)O + CC1OCC2(CCN(c3cnc(Sc4ccnc(N)c4Cl)c(N)n3)CC2)C1N ?
3.93

Any idea what viability, T/C was measured for COc1cc2nccc(Oc3ccc(NC(=O)C4(C(=O)Nc5ccc(F)cc5)CC4)cc3)c2cc1OC + CNCc1ccccc1-c1csc(C(C)Nc2nc(C)nc3cc(OC)c(OC)cc23)c1 ?
0.38

Any idea what viability, T/C was measured for Cn1nccc1Nc1nccc(-c2cc3c(s2)C(C)(C)N(CCN2CCOCC2)C3=O)n1 + CNCc1ccccc1-c1csc(C(C)Nc2nc(C)nc3cc(OC)c(OC)cc23)c1 ?
0.18

Any idea what viability, T/C was measured for CC(=O)OC12COC1CC(O)C1(C)C(=O)C(O)C3=C(C)C(OC(=O)C(O)C(NC(=O)OC(C)(C)C)c4ccccc4)CC(O)(C(OC(=O)c4ccccc4)C21)C3(C)C (stereo unspecified) + CNCc1ccccc1-c1csc(C(C)Nc2nc(C)nc3cc(OC)c(OC)cc23)c1 ?
0.43

Any idea what viability, T/C was measured for COC(=O)c1ccc2c(C(=Nc3ccc(N(C)C(=O)CN4CCN(C)CC4)cc3)c3ccccc3)c(O)[nH]c2c1 + CC1OCC2(CCN(c3cnc(Sc4ccnc(N)c4Cl)c(N)n3)CC2)C1N ?
13.9
